Entries and their Kd values follow.
Molecular target: Phosphatidylinositol 4,5-bisphosphate 3-kinase catalytic subunit beta isoform (Homo sapiens, UniProt P42338)
Sequence (P42338 whole entry, canonical isoform): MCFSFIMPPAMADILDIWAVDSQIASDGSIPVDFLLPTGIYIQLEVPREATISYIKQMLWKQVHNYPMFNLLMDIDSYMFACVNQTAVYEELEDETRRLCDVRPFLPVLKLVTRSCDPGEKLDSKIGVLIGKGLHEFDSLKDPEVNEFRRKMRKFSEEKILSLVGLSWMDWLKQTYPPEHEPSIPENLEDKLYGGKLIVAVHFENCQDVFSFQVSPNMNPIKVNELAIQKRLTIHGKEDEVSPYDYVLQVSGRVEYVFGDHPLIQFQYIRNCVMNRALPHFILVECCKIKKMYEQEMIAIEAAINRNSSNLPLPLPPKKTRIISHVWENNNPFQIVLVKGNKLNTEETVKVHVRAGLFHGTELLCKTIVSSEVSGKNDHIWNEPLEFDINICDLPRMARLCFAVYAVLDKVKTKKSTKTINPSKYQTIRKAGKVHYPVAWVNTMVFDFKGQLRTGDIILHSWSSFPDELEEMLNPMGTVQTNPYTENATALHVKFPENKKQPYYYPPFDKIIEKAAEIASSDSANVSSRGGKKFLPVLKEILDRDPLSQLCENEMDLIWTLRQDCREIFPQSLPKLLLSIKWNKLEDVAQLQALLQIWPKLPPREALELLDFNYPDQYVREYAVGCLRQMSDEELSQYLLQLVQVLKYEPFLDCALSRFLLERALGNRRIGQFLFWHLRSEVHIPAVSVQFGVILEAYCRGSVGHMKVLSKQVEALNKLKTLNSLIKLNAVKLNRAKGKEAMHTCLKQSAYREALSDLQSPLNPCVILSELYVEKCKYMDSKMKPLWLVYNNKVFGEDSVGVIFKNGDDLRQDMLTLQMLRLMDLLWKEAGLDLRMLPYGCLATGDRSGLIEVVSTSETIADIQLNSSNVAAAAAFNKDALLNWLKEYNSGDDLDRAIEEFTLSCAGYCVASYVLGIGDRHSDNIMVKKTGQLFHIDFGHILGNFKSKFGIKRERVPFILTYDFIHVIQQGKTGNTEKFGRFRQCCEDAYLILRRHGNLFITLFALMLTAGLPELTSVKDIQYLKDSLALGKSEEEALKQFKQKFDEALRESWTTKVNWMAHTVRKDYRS
propertyMeasured: Kd (µM)

compound | propertyMeasured | resultUnit | resultNumber
Nc1cc(C(F)F)c(-c2nc(N3C4CCC3COC4)nc(N3C4CCC3COC4)n2)cn1 | Kd | µM | 22
CNC(=O)c1cccc(-c2ccc3c(N4CCOC[C@@H]4C)nc(N4CCOC[C@@H]4C)nc3n2)c1 [VISTUSERTIB] | Kd | µM | 3.3
CCC(CC)n1cnc2c(-c3cnc(N)cn3)nc(N3CC4CCC(C3)O4)nc21 | Kd | µM | 20

----------
Test: Drug uptake in Sprague-Dawley rat brain at 10 mg/kg, po administered as single dose measured at >8 hrs
Assay type: ADME, organism-based
Conditions: read-out: Drug uptake
propertyMeasured: concentration at 8 h (ng/g)

molecularString | resultNumber
Nc1cc(C(F)F)c(-c2nc(N3C4CCC3COC4)nc(N3C4CCC3COC4)n2)cn1 | 900
